The values you see were collected from ChEMBL document CHEMBL1777689.

- MEASUREMENT_NOTES: Aqueous solubility of the compound
- Assay type: physicochemical
- MEASUREMENT_PARAMETERS: buffer; read-out: solubility
solubility of 50 µg/mL or higher: rule met. Under 50 µg/mL: rule not met.

Example cases with answers are listed next.
Cc1c2c(n3c1CCCN1CC[C@H](CNc4cc-3ccc4C(N)=O)C1)CC(C)(C)CC2=O ... rule met
Cc1c2c(n3c1CCCN1CCOC[C@@H]1CNc1cc-3ccc1C(N)=O)CC(C)(C)CC2=O ... rule not met
Cc1c2c(n3c1CCCN1CCC[C@@H]1CNc1cc-3ccc1C(N)=O)CC(C)(C)CC2=O ... rule met
Cc1c2c(n3c1CCCN1C[C@H](O)C[C@@H]1CNc1cc-3ccc1C(N)=O)CC(C)(C)CC2=O ... rule met
Cc1c2c(n3c1CCCN1CCCC[C@@H]1CNc1cc-3ccc1C(N)=O)CC(C)(C)CC2=O ... rule met

Task item: I'd appreciate it if you could say whether Cc1c2c(n3c1CCCN1C[C@@H](N4CCCC4)C[C@@H]1CNc1cc-3ccc1C(N)=O)CC(C)(C)CC2=O has solubility at least equal to 50 µg/mL.
Reply: rule met

Task item: I'd appreciate it if you could say whether Cc1c2c(n3c1CCCN1CCCC[C@@H]1[C@H](C)Nc1cc-3ccc1C(N)=O)CC(C)(C)CC2=O has solubility at least equal to 50 µg/mL.
Reply: rule not met

Task item: I'd appreciate it if you could say whether Cc1c2c(n3c1CCCN1C[C@@H](F)C[C@@H]1CNc1cc-3ccc1C(N)=O)CC(C)(C)CC2=O has solubility at least equal to 50 µg/mL.
Reply: rule not met

Task item: I'd appreciate it if you could say whether Cc1c2c(n3c1CCCN1CCC[C@@H](C1)Nc1cc-3ccc1C(N)=O)CC(C)(C)CC2=O has solubility at least equal to 50 µg/mL.
Reply: rule not met

Task item: I'd appreciate it if you could say whether Cc1c2c(n3c1CCCCN1CCC[C@@H]1CNc1cc-3ccc1C(N)=O)CC(C)(C)CC2=O has solubility at least equal to 50 µg/mL.
Reply: rule met

Task item: I'd appreciate it if you could say whether Cc1c2c(n3c1CCN1CCC[C@@H]1CNc1cc-3ccc1C(N)=O)CC(C)(C)CC2=O has solubility at least equal to 50 µg/mL.
Reply: rule not met
